target: Recombinant Rat Protein Tyrosine Phosphatase 1B (rPTP1B) (Rattus norvegicus, UniProt P20417); construct: laboratory of Dr. Barry Goldstein, Thomas Jefferson University (obtained from, not a commercial purchase); assay: Inhibition of recombinant rat PTP1B (rPTP1B) activity using p-nitrophenylphosphate as substrate; assay type: biochemical; settings: pH 7.4, All compounds administered at 25 μM; p-nitrophenyl phosphate substrate, pH 7.4, 37° C., 30 min
Sequence (P20417 whole entry): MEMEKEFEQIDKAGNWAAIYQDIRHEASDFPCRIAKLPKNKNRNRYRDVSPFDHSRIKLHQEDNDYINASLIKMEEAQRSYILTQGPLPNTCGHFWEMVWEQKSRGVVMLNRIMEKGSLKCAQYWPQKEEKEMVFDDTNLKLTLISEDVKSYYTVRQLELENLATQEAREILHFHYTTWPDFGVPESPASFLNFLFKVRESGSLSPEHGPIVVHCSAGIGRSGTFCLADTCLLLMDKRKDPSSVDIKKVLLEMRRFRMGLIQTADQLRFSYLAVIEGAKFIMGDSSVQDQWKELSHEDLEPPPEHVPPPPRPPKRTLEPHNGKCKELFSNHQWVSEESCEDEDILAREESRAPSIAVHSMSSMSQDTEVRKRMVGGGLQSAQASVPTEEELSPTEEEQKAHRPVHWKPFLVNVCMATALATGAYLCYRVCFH
Value Type: inhibition at 25 µM (%)
Answers are plain numbers, in %.

Example results:
CCCCCC/C=C\CCCCCCCC(=O)Nc1nc(CC(=O)O)cs1 : 93.8
CCCCCC/C=C/CCCCCCCCCC(=O)Nc1nc(CC(=O)O)cs1 : 96.6
CCCCCCCC/C=C\CCCCCCCC(=O)Nc1nc(CC(=O)O)cs1 : 93.4
CC/C=C\C/C=C\C/C=C\CCCCCCCC(=O)Nc1nc(CC(=O)O)cs1 : 92.4

Your task in this section: give inhibition at 25 µM for each listed record.
1. CCCCCCCCC#CCCCCCCCC(=O)Nc1nc(CC(=O)O)cs1
2. CCCCCCCCCCC/C=C\CCCCC(=O)Nc1nc(CC(=O)O)cs1
3. CCCCCC/C=C/CCCCCCCC(=O)Nc1nc(CC(=O)O)cs1

Found:
1: 84.8; 2: 95; 3: 83.8
